Readings of DC50 for the listed molecules
Molecular target: SMARCA4 (Homo sapiens)
Construct: SMARCA2/SMARCA4 protein degradation selectivity in MV4-11 cells; endogenous in cells; host or cells: MV4-11
Sequence (P51532 whole entry): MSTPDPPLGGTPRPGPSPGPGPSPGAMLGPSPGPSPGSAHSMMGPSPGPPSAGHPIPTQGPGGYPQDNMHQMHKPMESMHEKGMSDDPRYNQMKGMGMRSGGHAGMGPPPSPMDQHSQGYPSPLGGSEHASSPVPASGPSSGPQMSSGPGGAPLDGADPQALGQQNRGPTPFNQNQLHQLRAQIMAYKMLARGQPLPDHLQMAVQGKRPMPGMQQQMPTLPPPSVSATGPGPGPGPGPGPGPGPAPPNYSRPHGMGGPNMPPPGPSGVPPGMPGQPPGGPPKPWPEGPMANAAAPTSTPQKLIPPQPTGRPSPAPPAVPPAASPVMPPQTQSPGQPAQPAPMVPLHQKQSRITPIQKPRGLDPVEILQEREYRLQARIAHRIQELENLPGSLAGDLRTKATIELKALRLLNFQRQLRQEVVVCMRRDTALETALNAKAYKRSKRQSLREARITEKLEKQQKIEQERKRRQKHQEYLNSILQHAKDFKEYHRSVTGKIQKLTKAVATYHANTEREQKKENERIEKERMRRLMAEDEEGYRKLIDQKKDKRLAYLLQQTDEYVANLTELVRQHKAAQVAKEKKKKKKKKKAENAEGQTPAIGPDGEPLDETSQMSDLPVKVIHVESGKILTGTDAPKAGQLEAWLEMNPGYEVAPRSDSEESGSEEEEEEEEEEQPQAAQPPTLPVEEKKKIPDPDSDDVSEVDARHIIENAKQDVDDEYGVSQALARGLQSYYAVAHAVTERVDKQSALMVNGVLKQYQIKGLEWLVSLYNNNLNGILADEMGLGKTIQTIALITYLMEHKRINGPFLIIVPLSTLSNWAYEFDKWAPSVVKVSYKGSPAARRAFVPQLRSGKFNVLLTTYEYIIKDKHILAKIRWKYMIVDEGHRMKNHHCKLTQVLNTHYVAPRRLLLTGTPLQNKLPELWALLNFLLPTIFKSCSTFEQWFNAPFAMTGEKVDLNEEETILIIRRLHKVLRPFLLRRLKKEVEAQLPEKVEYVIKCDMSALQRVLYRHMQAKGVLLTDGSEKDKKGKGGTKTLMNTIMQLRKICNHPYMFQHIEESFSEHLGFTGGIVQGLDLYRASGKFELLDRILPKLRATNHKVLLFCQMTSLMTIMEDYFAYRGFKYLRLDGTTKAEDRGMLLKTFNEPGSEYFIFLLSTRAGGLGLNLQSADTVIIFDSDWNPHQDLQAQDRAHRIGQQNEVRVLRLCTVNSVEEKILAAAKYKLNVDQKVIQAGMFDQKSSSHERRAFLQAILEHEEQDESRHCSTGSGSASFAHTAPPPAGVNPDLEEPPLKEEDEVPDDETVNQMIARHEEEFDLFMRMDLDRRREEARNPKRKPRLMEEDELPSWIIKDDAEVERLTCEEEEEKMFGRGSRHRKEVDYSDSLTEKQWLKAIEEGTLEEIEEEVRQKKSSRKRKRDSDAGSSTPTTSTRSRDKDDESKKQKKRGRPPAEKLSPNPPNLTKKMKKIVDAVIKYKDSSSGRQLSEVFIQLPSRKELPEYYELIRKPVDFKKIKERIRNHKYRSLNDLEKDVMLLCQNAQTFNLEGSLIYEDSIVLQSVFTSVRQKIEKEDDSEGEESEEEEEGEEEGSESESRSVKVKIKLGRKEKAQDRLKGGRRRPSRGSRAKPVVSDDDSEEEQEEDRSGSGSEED
Experiment: SMARCA4 Western blot degradation in MV4-11 cells
Format: cell-based
Conditions: MV4-11 cells, 24 h; read-out: SMARCA4 MSD MV411 degradation 24 h: Mean external-Abs DC50

molecule="Cc1ncsc1-c1ccc(CNC(=O)[C@@H]2C[C@@H](O)CN2C(=O)[C@@H](NC(=O)C2(F)CC2)C(C)(C)C)c(O[C@H]2CC[C@H](N3CCC(N4CCC(c5cnc(N6CCc7[nH]c8nnc(-c9ccccc9O)cc8c7[C@@H]6C)nc5)CC4)CC3)CC2)c1 (single isomer, unassigned)" experimental_value="0.001 to 0.01 µM"
molecule=C#Cc1ccc(CNC(=O)[C@@H]2C[C@@H](O)CN2C(=O)[C@@H](NC(=O)N2CCN(C[C@H]3CC[C@H](N4CCc5[nH]c6nnc(-c7ccccc7O)cc6c5[C@H]4C)CC3)CC2)C(C)(C)C)cc1 experimental_value="> 0.1 µM"
molecule="C#Cc1ccc(CNC(=O)[C@@H]2C[C@@H](O)CN2C(=O)[C@@H](NC(=O)[C@H]2CCC3(CC2)C[C@H](N2CCC(c4cnc(N5CCN6c7cc(-c8ccccc8O)nnc7NC[C@H]6C5)nc4)CC2)C3)C(C)(C)C)c(F)c1 (single isomer, unassigned) [I-97]" experimental_value="> 0.1 µM"
molecule=C#Cc1ccc(CNC(=O)[C@@H]2C[C@@H](O)CN2C(=O)[C@@H](NC(=O)N2CCN(CC3CCN([C@H]4CC[C@H](N5CCc6[nH]c7nnc(-c8ccccc8O)cc7c6[C@H]5C)CC4)CC3)CC2)C(C)(C)C)cc1 experimental_value="> 0.1 µM"
molecule="C#Cc1ccc(CNC(=O)[C@@H]2C[C@@H](O)CN2C(=O)[C@H](NC(=O)[C@H]2CCC3(CC2)C[C@H](N2CCN(c4cnc(N5CCN6c7cc(-c8ccccc8O)nnc7NC[C@H]6C5)nc4)CC2)C3)C(C)(C)CCO)c(Cl)c1 (stereo partly shown) [I-307]" experimental_value="> 0.1 µM"

Shift focus to the following entry.
Query C#Cc1ccc(CNC(=O)[C@@H]2C[C@@H](O)CN2C(=O)[C@@H](N(CCN(C)C)C(=O)N2CC3(CC(N4CCC(c5cnc(N6CCc7[nH]c8nnc(-c9ccccc9O)cc8c7[C@H]6C)nc5)CC4)C3)C2)C(C)(C)C)cc1 yields DC50 of > 0.1 µM

---

# DC50 per entry
Biological target: SMARCA2 (Homo sapiens, UniProt P51531)
Sequence (P51531 whole entry): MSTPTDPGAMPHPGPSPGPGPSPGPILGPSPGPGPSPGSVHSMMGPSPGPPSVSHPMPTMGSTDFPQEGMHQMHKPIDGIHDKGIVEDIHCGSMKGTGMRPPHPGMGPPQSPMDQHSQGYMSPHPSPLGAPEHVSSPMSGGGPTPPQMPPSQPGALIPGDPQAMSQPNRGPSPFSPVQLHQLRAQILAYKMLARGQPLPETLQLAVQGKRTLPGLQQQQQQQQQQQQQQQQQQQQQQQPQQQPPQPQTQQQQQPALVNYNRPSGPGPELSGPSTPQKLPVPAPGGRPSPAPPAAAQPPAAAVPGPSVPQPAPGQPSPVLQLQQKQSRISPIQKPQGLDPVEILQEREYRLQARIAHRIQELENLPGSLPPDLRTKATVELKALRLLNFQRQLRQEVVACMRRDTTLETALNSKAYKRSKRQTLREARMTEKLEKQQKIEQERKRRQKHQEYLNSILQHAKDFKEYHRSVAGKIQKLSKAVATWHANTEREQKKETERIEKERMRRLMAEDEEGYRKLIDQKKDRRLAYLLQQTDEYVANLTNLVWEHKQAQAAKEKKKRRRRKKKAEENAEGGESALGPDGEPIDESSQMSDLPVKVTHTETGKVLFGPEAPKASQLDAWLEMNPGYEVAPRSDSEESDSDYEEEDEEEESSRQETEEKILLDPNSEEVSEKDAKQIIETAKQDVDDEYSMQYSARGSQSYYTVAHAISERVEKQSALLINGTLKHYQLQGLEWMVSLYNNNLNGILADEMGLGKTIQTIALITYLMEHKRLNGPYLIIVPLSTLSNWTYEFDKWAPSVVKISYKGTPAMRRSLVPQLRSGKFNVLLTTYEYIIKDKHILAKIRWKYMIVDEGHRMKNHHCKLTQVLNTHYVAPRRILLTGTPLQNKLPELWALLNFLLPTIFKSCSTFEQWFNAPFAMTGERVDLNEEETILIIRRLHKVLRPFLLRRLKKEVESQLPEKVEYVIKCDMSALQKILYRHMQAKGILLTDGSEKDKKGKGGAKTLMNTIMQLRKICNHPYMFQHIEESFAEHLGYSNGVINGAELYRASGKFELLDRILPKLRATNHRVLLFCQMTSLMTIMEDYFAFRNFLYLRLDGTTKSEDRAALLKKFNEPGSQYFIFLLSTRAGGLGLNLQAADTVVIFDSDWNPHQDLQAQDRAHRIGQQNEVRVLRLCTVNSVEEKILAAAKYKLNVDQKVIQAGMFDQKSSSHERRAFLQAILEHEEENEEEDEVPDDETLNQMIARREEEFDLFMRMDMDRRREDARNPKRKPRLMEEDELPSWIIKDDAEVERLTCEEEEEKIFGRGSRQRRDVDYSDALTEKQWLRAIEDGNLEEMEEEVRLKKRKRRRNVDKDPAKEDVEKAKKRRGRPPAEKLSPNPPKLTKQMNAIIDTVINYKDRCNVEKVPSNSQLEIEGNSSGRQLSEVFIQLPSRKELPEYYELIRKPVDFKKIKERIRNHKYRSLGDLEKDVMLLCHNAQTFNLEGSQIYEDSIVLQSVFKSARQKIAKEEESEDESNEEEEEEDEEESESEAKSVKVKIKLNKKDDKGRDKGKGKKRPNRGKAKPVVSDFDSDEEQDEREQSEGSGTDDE
Assay: SMARCA2 Western blot degradation in MV4-11 cells
Assay type: cell-based
Set-up: SMARCA2/SMARCA4 protein degradation selectivity in MV4-11 cells; endogenous in cells; host or cells: MV4-11
Details: MV4-11 cells, 24 h; read-out: SMARCA2 MSD MV411 degradation 24 h: Mean external-Abs DC50

compound=Cc1ncsc1-c1ccc(CNC(=O)[C@@H]2C[C@@H](O)CN2C(=O)[C@@H](NC(=O)N2CCC3(CCC(N4CCC(c5cnc(N6CCN7c8cc(-c9ccccc9O)nnc8NC[C@H]7C6)nc5)CC4)CC3)CC2)C(C)(C)C)cc1 readout_type=DC50 experimental_value="10 to 100 nM"
compound="C#Cc1ccc([C@H](C)NC(=O)[C@@H]2C[C@@H](O)CN2C(=O)[C@@H](NC(=O)[C@H]2CC3(C2)C[C@H](c2cnc(N4CCC(N5CCN6c7cc(-c8ccccc8O)nnc7NC[C@H]6C5)CC4)nc2)C3)C(C)(C)C)cc1 (some centres unmarked) [I-363]" readout_type=DC50 experimental_value="1 to 10 nM"
compound="C#Cc1ccc(CNC(=O)[C@@H]2C[C@@H](O)CN2C(=O)[C@@H](NC(=O)[C@H]2CCC3(CC2)C[C@H](N2CCN(c4cnc(N5CCN6c7cc(-c8ccccc8O)nnc7NC[C@H]6C5)nc4)CC2)C3)C(C)(C)C)c(OC)c1 (single isomer, unassigned) [I-195]" readout_type=DC50 experimental_value="1 to 10 nM"
compound=C#Cc1ccc([C@H](C)NC(=O)[C@@H]2C[C@@H](O)CN2C(=O)[C@@H](NC(=O)N2CC3(CC(N4CCC(c5cnc(N6CCc7[nH]c8nnc(-c9ccccc9O)cc8c7[C@H]6C)nc5)CC4)C3)C2)C(C)(C)C)c(OC)c1 readout_type=DC50 experimental_value="1 to 10 nM"
compound="C#Cc1ccc([C@H](C)NC(=O)[C@@H]2C[C@@H](O)CN2C(=O)[C@@H](NC(=O)[C@H]2CC3(C2)C[C@H](c2cnc(N4CCC(N5CCN6c7cc(-c8ccccc8O)nnc7NC[C@H]6C5)CC4)nc2)C3)C(C)(C)C)cc1 (some centres unmarked) [I-362]" readout_type=DC50 experimental_value="1 to 10 nM"
compound="C#Cc1ccc(CNC(=O)[C@@H]2C[C@@H](O)CN2C(=O)C(c2cc(OCCN3CCC(N4CCC(N5CCC(CN6CCN7c8cc(-c9ccccc9O)nnc8NC[C@H]7C6)CC5)CC4)CC3)no2)C(C)C)c(F)c1 (some centres unmarked)" readout_type=DC50 experimental_value="1 to 10 nM"
compound=C#Cc1ccc(CNC(=O)[C@@H]2C[C@@H](O)CN2C(=O)[C@@H](NC(=O)N2CC3(CC(N4CCC(c5cnc(N6CCc7[nH]c8nnc(-c9ccccc9O)cc8c7[C@@H]6C)s5)CC4)C3)C2)C(C)(C)C)cc1 readout_type=DC50 experimental_value="10 to 100 nM"

Please look at the following compound next.
C#Cc1ccc(CNC(=O)[C@@H]2C[C@@H](O)CN2C(=O)[C@@H](NC(=O)[C@H]2CCC3(CC2)C[C@H](N2CCN(c4cnc(N5CCN6c7cc(-c8ccccc8O)nnc7NC[C@H]6C5)nc4)CC2)C3)C(C)(C)CCO)c(Cl)c1 (single isomer, unassigned) [I-311] yielded DC50 of 1 to 10 nM

---

Molecular target: UniProt:P51531
Assay: MSD SMARCA2 degradation in A549 cell line
Type: cell-based
Conditions: A549, A549 cells, 24 h
READOUT TYPE: Dmax

molecule="Cc1ncsc1-c1ccc(CNC(=O)[C@@H]2C[C@@H](O)CN2C(=O)[C@@H](NC(=O)[C@H]2CCC3(CC2)C[C@H](N2CCN(c4cnc(N5CCc6[nH]c7nnc(-c8ccccc8O)cc7c6[C@H]5C)nc4)CC2)C3)C(C)(C)C)cc1 (single isomer, unassigned) [I-112]" experimental_value="> 90%"
molecule="CC(C)C(C(=O)N1C[C@H](O)C[C@H]1C(=O)N[C@@H](C)C#Cc1ccccc1)c1cc(OCCN2CCC(N3CCC(N4CCC(CN5CCN6c7cc(-c8ccccc8O)nnc7NC[C@H]6C5)CC4)CC3)CC2)no1 (stereo partly shown) [I-283]" experimental_value="70 to 90%"
molecule="Cc1ncsc1-c1ccc(CNC(=O)[C@@H]2C[C@@H](O)CN2C(=O)[C@@H](NC(=O)C2(F)CC2)C(C)(C)C)c(O[C@H]2CC[C@H](N3CCC(c4cnc(N5CCc6[nH]c7nnc(-c8ccccc8O)cc7c6[C@H]5C)nc4)CC3)CC2)c1 (single isomer, unassigned) [I-30]" experimental_value="> 90%"

Now let's try a different one.
Sample C#Cc1ccc(CNC(=O)[C@@H]2C[C@@H](O)CN2C(=O)[C@@H](NC(=O)N2CC3(CC(N4CCC(c5cnc(N6CCc7[nH]c8nnc(-c9ccccc9O)cc8c7[C@@H]6CO)nc5)CC4)C3)C2)C(C)(C)C)cc1 [I-147] , system: UniProt:P51531. Its Dmax is > 90%

---

Target: SMARCA2 (Homo sapiens)
Test: MSD SMARCA2 degradation in A549 cell line
Type: cell-based
Conditions: A549 cells, 24 h, read-out: SMARCA2 MSD A549 degradation 24 h: Average external-Abs DC50
READOUT TYPE: DC50

Recorded DC50, per entry:
compound=C#Cc1ccc(CNC(=O)[C@@H]2C[C@@H](O)CN2C(=O)[C@@H](NC(=O)N2CC3(CC(N4CCC(c5cnc(N6CCc7[nH]c8nnc(-c9ccccc9O)cc8c7[C@H]6C)nc5)CC4)C3)C2)C(C)(C)C)cc1Cl study_system="SMARCA2 (Homo sapiens)" readout_type=DC50 experimental_value="10 to 50 nM"
compound="Cc1ncsc1-c1ccc(CNC(=O)[C@@H]2C[C@@H](O)CN2C(=O)C(c2cc(N3CCC4(CC3)CC(N3CCC(c5cnc(N6CCc7[nH]c8nnc(-c9ccccc9O)cc8c7[C@@H]6C)nc5)CC3)C4)no2)C(C)C)cc1 (single isomer, unassigned)" study_system="SMARCA2 (Homo sapiens)" readout_type=DC50 experimental_value="50 to 100 nM"
compound="C[C@H](NC(=O)[C@@H]1C[C@@H](O)CN1C(=O)[C@@H](NC(=O)[C@H]1CCC2(CC1)C[C@H](N1CCC(c3cnc(N4CCN5c6cc(-c7ccccc7O)nnc6NC[C@H]5C4)nc3)CC1)C2)C(C)(C)C)c1ccc(-c2ccnn2C)cc1 (single isomer, unassigned) [I-21]" study_system="SMARCA2 (Homo sapiens)" readout_type=DC50 experimental_value="10 to 50 nM"
compound="C#Cc1cnc(CNC(=O)[C@@H]2C[C@@H](O)CN2C(=O)[C@@H](NC(=O)[C@H]2CC3(C2)C[C@H](N2CCC(N4CCC(N5CCN6c7cc(-c8ccccc8O)nnc7NC[C@H]6C5)CC4)CC2)C3)C(C)(C)C)c(OC)c1 (some centres unmarked) [I-331]" study_system="SMARCA2 (Homo sapiens)" readout_type=DC50 experimental_value="> 100 nM"
compound=C#Cc1ccc(CNC(=O)[C@@H]2C[C@@H](O)CN2C(=O)[C@@H](NC(=O)N2CC3(CC(c4cnc(N5CCC(N6CCN7c8cc(-c9ccccc9O)nnc8NC[C@H]7C6)CC5)nc4)C3)C2)C(C)(C)C)cc1 study_system="SMARCA2 (Homo sapiens)" readout_type=DC50 experimental_value="< 10 nM"
compound="C#Cc1ccc(CNC(=O)[C@@H]2C[C@@H](O)CN2C(=O)[C@@H](NC(=O)[C@H]2CC3(C2)C[C@H](N2CCC(N4CCC(N5CCN6c7cc(-c8ccccc8O)nnc7NC[C@H]6C5)CC4)CC2)C3)C(C)(C)C)c(O)c1 (some centres unmarked) [I-242]" study_system="SMARCA2 (Homo sapiens)" readout_type=DC50 experimental_value="50 to 100 nM"
compound="C#Cc1ccc([C@H](CO)NC(=O)[C@@H]2C[C@@H](O)CN2C(=O)[C@@H](NC(=O)N2CC3(CC(N4CCC(c5cnc(N6CCc7[nH]c8nnc(-c9ccccc9O)cc8c7[C@H]6C)nc5)CC4)C3)C2)C(C)(C)C)nc1 (single isomer, unassigned)" study_system="SMARCA2 (Homo sapiens)" readout_type=DC50 experimental_value="50 to 100 nM"

Now take the following compound into account.
response.value for C#Cc1ccc(CNC(=O)[C@@H]2C[C@@H](O)CN2C(=O)[C@@H](NC(=O)N2CCC[C@H](CN3CCC(N4CCC(N5CCN6c7cc(-c8ccccc8O)nnc7NC[C@H]6C5)CC4)CC3)C2)C(C)(C)C)cc1 (field: DC50) = > 100 nM

These measurements were taken from patent US20250170248A1.
